Record type: GI50 measurement. Applies to: U251 CNS

>  <Compound>
Oc1cc2cccc[n+]2c2cccc(Cl)c12

>  <GI50>
42 µM

$$$$

Items follow; give GI50 for each.
1. S=C(Nc1ccc(Cl)cc1)Nc1ccc(-c2nc3ccccc3[nH]2)cc1
2. O=C(Nc1ccc(Cl)cc1)c1cc2ccccc2cc1O
3. Nc1ccccc1C#C/C=C\C#Cc1ccc(Cl)cc1Cl
4. CC(NNC(=S)N1CCCCCC1)c1ccc2ccccc2n1 (stereo unspecified)
5. COc1ccc2[nH]c(Cl)c(/C=C3/C(=O)N(C)c4ccccc43)c2c1
6. O=C1OC(=O)C2C1C1(c3ccccc3)C(c3ccccc3)=C(c3ccccc3)C2(c2ccccc2)S1=O (stereo unspecified)

1: 5.06 µM; 2: 2.54 µM; 3: 15.3 µM; 4: 0.92 µM; 5: > 100 µM; 6: > 100 µM

Items follow; give GI50 for each.
1. Cc1[nH]c(/C=C2\C(=O)Nc3ccc(F)cc32)c(C)c1C(=O)NC[C@H](O)CN1CCOCC1
2. CC1=Cc2cc3[n-]c(cc4nc(cc5[n-]c(cc1n2)cc5C)C(C)=C4CCC(=O)O)c(CCC(=O)O)c3C.[Pd+2]
3. O=c1cc(-c2ccccc2)nc2n1CCN2Cc1ccccc1
4. O=C(C(Br)Br)C(Br)C(Br)c1ccccc1 (stereo unspecified)
5. C[N+](C)(CCCCCC[N+](C)(C)CCCN1C(=O)c2cc3ccccc3cc2C1=O)CCCN1C(=O)c2ccccc2C1=O
6. COc1cc(/C=C/C(=O)c2ccc(Cl)cc2)ccc1OS(=O)(=O)c1ccc(C)cc1
7. Cc1cc(S(=O)(=O)Nc2nnc(-c3ccccc3)c(-c3ccccc3)n2)c(SCc2ccccc2)cc1Cl

6.65 µM
2.56 µM
30.5 µM
2.96 µM
> 37.5 µM
2.18 µM
21.7 µM

Items follow; give GI50 for each.
1. N=C(N)CCCCCCCCC(=N)N
2. O=C1c2ccccc2-c2c1c1ccccc1c(=O)n2CCCN1CCOCC1

["8.08 µM", "3.67 µM"]
